- procedure.summary: Induction of IFN activity in pig EPT cells assessed as interferon titer at 1.5 uM after 24 hrs by microscopical method
- Type: functional, Sus scrofa
Examples of compounds with documented Activity follow.
Please reply with the number alone, leaving off any unit.

Please review the entries below; each comes with its answer.
The compound c1ccc2nc3c(nc2c1)c1ccccc1n3CCN1CCOCC1 showed Activity equal to 16

The compound CC1CCCCN1CCn1c2ccccc2c2nc3ccccc3nc21 (configuration not stated) showed Activity equal to 32

The compound CCCCN(CC)CCn1c2ccccc2c2nc3ccccc3nc21 showed Activity equal to 8

The compound c1ccc2nc3c(nc2c1)c1ccccc1n3CCN1CCCCC1 showed Activity equal to 32

The compound CN1CCN(CCn2c3ccccc3c3nc4ccccc4nc32)CC1 showed Activity equal to 32

The compound c1ccc2nc3c(nc2c1)c1ccccc1n3CCN1CCCCCC1 showed Activity equal to 32

Now consider the entry below.
The compound CC1CCN(CCn2c3ccccc3c3nc4ccccc4nc32)CC1 showed Activity equal to 32

###

- procedure.summary: Cytotoxicity against pig EPT cells after 24 to 48 hrs
- Format: cell-based, Sus scrofa
- condition.notes: EPT cells
observable: CC50 (µM)
Your answer is read as µM, so omit the unit and give the number.

Please review the entries below; each comes with its answer.
The compound CCCN(CCC)CCn1c2ccccc2c2nc3ccccc3nc21 showed CC50 equal to 148

The compound CCN(CC)CCn1c2ccccc2c2nc3ccccc3nc21 showed CC50 equal to 457

The compound CN1CCN(CCn2c3ccccc3c3nc4ccccc4nc32)CC1 showed CC50 equal to 81.3

The compound c1ccc2nc3c(nc2c1)c1ccccc1n3CCN1CCCCC1 showed CC50 equal to 933

The compound CC1CCCCN1CCn1c2ccccc2c2nc3ccccc3nc21 (stereo unspecified) showed CC50 equal to 398

New cases:
The compound CN(C)CCn1c2ccccc2c2nc3ccccc3nc21 showed CC50 equal to 81.3

The compound CCCCN(C)CCn1c2ccccc2c2nc3ccccc3nc21 showed CC50 equal to 204

The compound CCN(CC)CCOc1ccc2c(c1)C(=O)c1cc(OCCN(CC)CC)ccc1-2.Cl.Cl [TILORONE HYDROCHLORIDE] showed CC50 equal to 107

The compound CCCCN(CC)CCn1c2ccccc2c2nc3ccccc3nc21 showed CC50 equal to 83.2

The compound c1ccc2nc3c(nc2c1)c1ccccc1n3CCN1CCCCCC1 showed CC50 equal to 132

The compound c1ccc2nc3c(nc2c1)c1ccccc1n3CCN1CCCC1 showed CC50 equal to 162

###

- procedure.summary: Cytotoxicity against mouse L929 cells after 24 to 48 hrs
- Format: cell-based
- condition.notes: L929 cells
Note to self: class labels come from recorded CC50, ranges listed here: lower band: < 100 µM; central band: ≥ 100 µM and < 200 µM; upper band: ≥ 200 µM

Kindly identify the class of c1ccc2nc3c(nc2c1)c1ccccc1n3CCN1CCCC1 .
lower band

Kindly identify the class of CC1CCN(CCn2c3ccccc3c3nc4ccccc4nc32)CC1 .
upper band

Kindly identify the class of CCCCN(C)CCn1c2ccccc2c2nc3ccccc3nc21 .
upper band

###

- procedure.summary: Induction of IFN activity in pig EPT cells assessed as interferon titer at 1.5 uM after 24 hrs by microscopical method
- Type: functional, Sus scrofa
Examples of compounds with documented Activity follow.
Please reply with the number alone, leaving off any unit.

The compound CCN(CC)CCOc1ccc2c(c1)C(=O)c1cc(OCCN(CC)CC)ccc1-2.Cl.Cl [TILORONE HYDROCHLORIDE] showed Activity equal to 32

The compound CN(C)CCn1c2ccccc2c2nc3ccccc3nc21 showed Activity equal to 32

New cases:
The compound c1ccc2nc3c(nc2c1)c1ccccc1n3CCN1CCCC1 showed Activity equal to 64

The compound CCN(CC)CCn1c2ccccc2c2nc3ccccc3nc21 showed Activity equal to 32

The compound CCCN(CCC)CCn1c2ccccc2c2nc3ccccc3nc21 showed Activity equal to 32

The compound CCCCN(C)CCn1c2ccccc2c2nc3ccccc3nc21 showed Activity equal to 32

###

- procedure.summary: Selectivity index, CC50 for mouse L929 cells to IC50 for Vesicular stomatitis virus treated immediately after viral infection
- Assay type: functional
Examples of molecules with documented Ratio CC50/IC50 follow.

The molecule CN1CCN(CCn2c3ccccc3c3nc4ccccc4nc32)CC1 showed Ratio CC50/IC50 equal to 46

The molecule c1ccc2nc3c(nc2c1)c1ccccc1n3CCN1CCCCC1 showed Ratio CC50/IC50 equal to 224

The molecule CCN(CC)CCOc1ccc2c(c1)C(=O)c1cc(OCCN(CC)CC)ccc1-2.Cl.Cl [TILORONE HYDROCHLORIDE] showed Ratio CC50/IC50 equal to 10

The molecule CC1CCCCN1CCn1c2ccccc2c2nc3ccccc3nc21 (stereo not drawn) showed Ratio CC50/IC50 equal to 74

The molecule CCN(CC)CCn1c2ccccc2c2nc3ccccc3nc21 showed Ratio CC50/IC50 equal to 79

The molecule CC1CCN(CCn2c3ccccc3c3nc4ccccc4nc32)CC1 showed Ratio CC50/IC50 equal to 78

The molecule CN(C)CCn1c2ccccc2c2nc3ccccc3nc21 showed Ratio CC50/IC50 equal to 58

The molecule CCCN(CCC)CCn1c2ccccc2c2nc3ccccc3nc21 showed Ratio CC50/IC50 equal to 158

New cases:
The molecule c1ccc2nc3c(nc2c1)c1ccccc1n3CCN1CCCC1 showed Ratio CC50/IC50 equal to 468

The molecule c1ccc2nc3c(nc2c1)c1ccccc1n3CCN1CCOCC1 showed Ratio CC50/IC50 equal to 17

The molecule c1ccc2nc3c(nc2c1)c1ccccc1n3CCN1CCCCCC1 showed Ratio CC50/IC50 equal to 62

The molecule CCCCN(CC)CCn1c2ccccc2c2nc3ccccc3nc21 showed Ratio CC50/IC50 equal to 27

The molecule CCCCN(C)CCn1c2ccccc2c2nc3ccccc3nc21 showed Ratio CC50/IC50 equal to 41

###

- procedure.summary: Cytotoxicity against mouse L929 cells after 24 to 48 hrs
- Type: cell-based
- condition.notes: L929 cells
observable: CC50 (µM)
Your answer is read as µM, so omit the unit and give the number.

Please review the entries below; each comes with its answer.
The molecule CN1CCN(CCn2c3ccccc3c3nc4ccccc4nc32)CC1 showed CC50 equal to 97.7

The molecule CCCCN(CC)CCn1c2ccccc2c2nc3ccccc3nc21 showed CC50 equal to 174

The molecule CCN(CC)CCn1c2ccccc2c2nc3ccccc3nc21 showed CC50 equal to 646

The molecule CN(C)CCn1c2ccccc2c2nc3ccccc3nc21 showed CC50 equal to 91.2

The molecule c1ccc2nc3c(nc2c1)c1ccccc1n3CCN1CCCCC1 showed CC50 equal to 178

The molecule CCCN(CCC)CCn1c2ccccc2c2nc3ccccc3nc21 showed CC50 equal to 219

The molecule c1ccc2nc3c(nc2c1)c1ccccc1n3CCN1CCCCCC1 showed CC50 equal to 145

The molecule CCN(CC)CCOc1ccc2c(c1)C(=O)c1cc(OCCN(CC)CC)ccc1-2.Cl.Cl [TILORONE HYDROCHLORIDE] showed CC50 equal to 112

New cases:
The molecule CC1CCCCN1CCn1c2ccccc2c2nc3ccccc3nc21 (centres undefined) showed CC50 equal to 234
